What growth was measured for each of the following?
test system: SNB-75 CNS; experiment: NCI-60 one-dose screen, 48 h (100 = growth as untreated, 0 = no growth, -100 = all killed); details: 10 µM unless noted
The panel holds about 83,000 compounds, 20% with a hit somewhere; the sample as a whole holds those more often.
Answers are plain numbers, in %.

molecule	unit_abbrev	growth
S=C=Nc1ccc(N2CCOCC2)cc1	%	66.4
Cc1c(O)ccc(SC#N)c1C	%	95.3
Cc1cc(C(=O)c2ccc(Cl)cc2)ccc1O	%	96
CCCN(CCC)C(=O)c1ccc(C)cc1	%	105

Hi! Can you tell me growth for each of these molecules?
1. CC(=O)Nc1ccc(C(=O)CCl)cc1
2. O=C(CBr)c1ccc(OC(=O)c2ccccc2)cc1
3. COc1ccc(C(OCC2OC(n3ccc(NC(=O)c4ccccc4)nc3=O)C(O)C2O)(c2ccccc2)c2ccccc2)cc1 (configuration not stated)

[84.3, 96.5, 34.1]

###

Give growth for every item shown.
tested on: NCI/ADR-RES ovarian; experiment: NCI-60 one-dose screen, 48 h (100 = growth as untreated, 0 = no growth, -100 = all killed); conditions: 10 µM unless noted
This is part of a sample that, as a whole, favours compounds with a hit. Of some 83,000 tested, about 20% had one in any assay.
One number for each entry, in %.

Sample records with growth:
compound	growth / %
Cc1ccc(NC2=CC(=O)C(=O)c3ccccc32)cc1	19.3
COc1cc(/C=C/c2ccnc3ccccc23)cc(OC)c1OC	-25.5
CCN(CC)CCNc1ccc([N+](=O)[O-])c2sc3ccccc3c(=O)c12	32.8

Batch request: growth for each of the following compounds.
1. CCCCCCCCCCCCCCCCCC[S+](C)CC (stereo unspecified)
2. Oc1ccc(Cl)cc1C(c1cc(Cl)ccc1O)C(Cl)(Cl)Cl
3. CN(C)CC(C)(CN(C)C)C(=O)/C=C/c1c(Cl)cccc1Cl

[84.7, 4.17, -29.7]

###

tested on: MALME-3M melanoma; assay: NCI-60 one-dose screen, 48 h (100 = growth as untreated, 0 = no growth, -100 = all killed); settings: 10 µM unless noted
This is part of a sample that, as a whole, favours compounds with a hit. Of some 83,000 tested, about 20% had one in any assay.
Give measured growth for each item. Keep answers brief.
Give bare numbers, in %.

Reference set (6 entries):
compound	growth (%)
Cc1ccc2cccc(OC(=O)Nc3cccc(C(F)(F)F)c3)c2n1	82
O=C1C=CC(=O)N1c1cc(Cl)c(Cl)cc1Cl	96.6
CN(C)c1ccc(/C=C/c2nccc3ccccc23)cc1	110
CCCCOS(=O)(=O)c1ccccc1	94.5
CC(C)c1ccc(C(=O)OC2CCCC2)cc1	101
CC(O)C(O)C(O)C(O)C(O)C(=O)NNc1ccccc1 (configuration not stated)	105

Record growth per entry; entries follow.
1. CC1(C)OC2C(COC(c3ccccc3)(c3ccccc3)c3ccccc3)OC(c3c[nH]c4c(N)ncnc34)C2O1 (configuration not stated)
2. Oc1ccc2ccccc2c1N=Nc1nccs1
3. CCOc1ccc2c(c1)/C(=C\C=C\C1CC(C)C3CC(OCC)CCC3N1CC)CC(C)N2CC (configuration not stated)
4. CCN1/C(=C/C(C)=C/c2sc3ccc4ccccc4c3[n+]2CC)Sc2ccc3ccccc3c21
5. Cc1nn(CCO)c(C)c1N=[N+]([O-])c1c(C)nn(CCO)c1C

93.5
29.2
-30.1
-87
-59.9

Give MALME-3M melanoma growth for CCCCCCCCCCCCNCCCc1ccccc1 82.5
